target: human KV 1.5 (IKur) (Homo sapiens); construct: expressed in transfected cells; assay: block of IKur current in patch clamped L-929 cells expressing human Kv1.5; assay type: cell-based; settings: L929, 0.3 μM; patch clamped mammalian L-929 cells stably expressing human Kv1.5; read-out: KV1_5% Inh L929 @0.3 μM
Sequence (P22460 whole entry): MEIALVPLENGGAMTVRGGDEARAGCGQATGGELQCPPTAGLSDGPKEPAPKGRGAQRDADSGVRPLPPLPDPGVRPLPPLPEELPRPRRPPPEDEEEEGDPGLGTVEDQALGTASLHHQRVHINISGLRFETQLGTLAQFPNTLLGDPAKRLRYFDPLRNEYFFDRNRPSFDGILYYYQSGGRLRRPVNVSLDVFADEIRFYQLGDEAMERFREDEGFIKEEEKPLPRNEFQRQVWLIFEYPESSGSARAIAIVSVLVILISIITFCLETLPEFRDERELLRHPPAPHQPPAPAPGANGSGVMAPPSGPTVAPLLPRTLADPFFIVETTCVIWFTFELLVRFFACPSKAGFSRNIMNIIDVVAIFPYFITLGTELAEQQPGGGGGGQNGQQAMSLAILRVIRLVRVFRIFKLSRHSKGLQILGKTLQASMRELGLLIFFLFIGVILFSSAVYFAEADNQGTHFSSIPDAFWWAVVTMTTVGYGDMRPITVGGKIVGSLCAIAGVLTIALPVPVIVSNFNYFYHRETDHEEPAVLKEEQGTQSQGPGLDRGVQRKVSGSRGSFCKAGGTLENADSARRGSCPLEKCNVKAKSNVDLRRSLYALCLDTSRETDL
OUTCOME MEASURE: inhibition at 0.3 µM (%)
Reply numerically in %, unit not repeated.

Task item: Look up inhibition at 0.3 µM: "O=C(Nc1ccc(CCO)cc1)c1nc(NCc2ccccc2)c2c(-c3ccccc3)ccn2n1"
Reply: 75.8

Task item: Would you kindly repeat that for "CC(=O)NC1(c2nc(NCc3ccccn3)c3c(-c4ccccc4)ccn3n2)CC1" ?
Reply: 46

Task item: Would you kindly repeat that for "NS(=O)(=O)c1cncc(-c2nc(NCc3cccnc3)c3c(-c4ccccc4)ccn3n2)c1" ?
Reply: 92

Task item: Would you kindly repeat that for NS(=O)(=O)c1cncc(-c2nc(NC(c3ccccc3)C(F)(F)F)c3c(-c4ccccc4)ccn3n2)c1 (stereo not drawn) ?
Reply: 89.8

Task item: Would you kindly repeat that for "NC(=O)CCC(=O)Nc1cncc(-c2nc(NCc3ccccn3)c3c(-c4ccccc4)ccn3n2)c1" ?
Reply: 96.3

Task item: Would you kindly repeat that for "c1ccc(-c2ccn3nc(-c4cc[nH]n4)nc(NCc4ccccn4)c23)cc1" ?
Reply: 98.5

Task item: Would you kindly repeat that for "NC(=O)CNS(=O)(=O)c1cncc(-c2nc(NCc3ccccn3)c3c(-c4ccccc4)ccn3n2)c1" ?
Reply: 97.5

Task item: Would you kindly repeat that for "NS(=O)(=O)c1cncc(-c2nc(NCc3ccccn3)c3c(-c4ccccc4)ccn3n2)c1" ?
Reply: 98.5

Task item: Would you kindly repeat that for "NS(=O)(=O)c1cccc(-c2nc(NCc3ccccn3)c3c(-c4ccccc4)ccn3n2)c1" ?
Reply: 97.5

Task item: Would you kindly repeat that for "O=C(O)c1cccc(-c2nc(NCc3ccccn3)c3c(-c4ccccc4)ccn3n2)c1" ?
Reply: 91

Task item: Would you kindly repeat that for "NS(=O)(=O)c1cc(-c2nc(NCc3ccccn3)c3c(-c4ccccc4)ccn3n2)cnc1C(F)F" ?
Reply: 97.1

Task item: Would you kindly repeat that for "CC(=O)Nc1ccc(NC(=O)c2nc(NCc3ccccc3)c3c(-c4ccccc4)ccn3n2)cc1" ?
Reply: 88.4
